# procedureDetails: Metabolic stability in rat plasma assessed as half life
# Type: ADME, cell-free
Form field: half-life (one value per entry).
The reply should consist of the numeric value with the unit placed after it.

Q. I have this compound here, CC1=C(/N=N/c2ccc(Cl)cc2)N=C(N2Nc3onc(-c4ccccc4)c3C2c2ccc(Cl)cc2)NN1 (stereo not drawn) , and I need its recorded half-life.
A. 4.05 h

Q. Which value of half-life has been reported for Cc1csc(N2Nc3onc(-c4ccccc4)c3C2c2ccc(Cl)cc2)n1 (stereo not drawn) in the records?
A. 5.72 h

Q. Quick one: half-life of Cc1nc(N2Nc3onc(-c4ccccc4)c3C2c2ccc(Cl)cc2)sc1/N=N/c1ccc([N+](=O)[O-])cc1 (stereo not drawn) ?
A. 6.08 h

Q. Requested field: half-life. Item: NC(=S)N1Nc2onc(-c3ccccc3)c2C1c1ccc(Cl)cc1 (stereo not drawn)
A. 2.2 h

Q. // returns reported half-life for input `O=C1Nc2ccc(Cl)cc2[C@@](C#CC2CC2)(C(F)(F)F)O1`
A. 1.48 h

Continuing:
Q. # half-life lookup, item Cc1nc(N2Nc3onc(-c4ccccc4)c3C2c2ccc(Cl)cc2)sc1/N=N/c1ccccc1 (stereo not drawn)
A. 4.42 h

Q. Reported half-life, compound Cc1ccc(/N=N/c2sc(N3Nc4onc(-c5ccccc5)c4C3c3ccc(Cl)cc3)nc2C)cc1 (stereo not drawn) : ____
A. 5.72 h

Q. Bench note: what half-life did Cc1nc(N2Nc3onc(-c4ccccc4)c3C2c2ccc(Cl)cc2)sc1/N=N/c1ccc(Cl)cc1 (stereo not drawn) show?
A. 7.57 h

Q. Fill in the blank: the reported half-life of CC1=C(/N=N/c2ccc(C)cc2)N=C(N2Nc3onc(-c4ccccc4)c3C2c2ccc(Cl)cc2)NN1 (stereo not drawn) is ____.
A. 2.57 h

====

# assaySystem: Human immunodeficiency virus type 1 reverse transcriptase (Human immunodeficiency virus 1, UniProt Q72547)
# procedureDetails: Inhibition of HIV1 recombinant reverse transcriptase assessed as incorporation of [32P]GTP into poly(rC).oligo(dG) template primer
reportedProperty: pIC50
Note on units: pIC50 is unitless, being -log10 of a concentration expressed in mol/L.

Q. Please report the recorded pIC50 for Cc1nc(N2Nc3onc(-c4ccccc4)c3C2c2ccc(Cl)cc2)sc1/N=N/c1ccc(Cl)cc1 (configuration not stated) .
A. 10.46

Q. pIC50 for NC(=S)N1Nc2onc(-c3ccccc3)c2C1c1ccc(Cl)cc1 (configuration not stated) ?
A. 10.43

More entries:
Q. Entry Cc1ccc(/N=N/c2sc(N3Nc4onc(-c5ccccc5)c4C3c3ccc(Cl)cc3)nc2C)cc1 (configuration not stated) : reported pIC50 = ?
A. 10.57

Q. Any idea what its pIC50 is? The compound is N/N=C(\N)N1Nc2onc(-c3ccccc3)c2C1c1ccc(Cl)cc1 (configuration not stated)
A. 10.74

Q. Can you share its pIC50? I mean this compound: Cc1nc(N2Nc3onc(-c4ccccc4)c3C2c2ccc(Cl)cc2)sc1/N=N/c1ccccc1 (configuration not stated)
A. 10.72

Q. I am curious: what pIC50 value has been reported for Cc1nc(N2Nc3onc(-c4ccccc4)c3C2c2ccc(Cl)cc2)sc1/N=N/c1ccc(Br)cc1 (configuration not stated) ?
A. 10.80

Q. What does the record list as pIC50 for CC1=C(/N=N/c2ccc(Cl)cc2)N=C(N2Nc3onc(-c4ccccc4)c3C2c2ccc(Cl)cc2)NN1 (configuration not stated) ?
A. 10.55
